# experimental setup: 39% to 50% relative humidity, dark, air, 9 d; measured 48% (Form A 47%), 24° C.

| compound | PXRD |
| --- | --- |
| Nc1nc(O)c2c(CCc3ccc(C(=O)N[C@@H](CCC(=O)O)C(=O)O)cc3)c[nH]c2n1 [Heptahydrate] | Heptahydrate |
| Nc1nc(O)c2c(CCc3ccc(C(=O)N[C@@H](CCC(=O)O)C(=O)O)cc3)c[nH]c2n1 [2.5 hydrate] | Heptahydrate |

---

# experimental setup: 60% to 70% relative humidity, dark, air, 9 d; measured 69% (Form A 68%), 24° C.
Could you please report measured HPLC-purity for the items listed next?
Response body: numeric value in %, unit text excluded.

Entry Nc1nc(O)c2c(CCc3ccc(C(=O)N[C@@H](CCC(=O)O)C(=O)O)cc3)c[nH]c2n1 [Form A] has what HPLC-purity? 99.71

// returns reported HPLC-purity for input Nc1nc(O)c2c(CCc3ccc(C(=O)N[C@@H](CCC(=O)O)C(=O)O)cc3)c[nH]c2n1 [Form IV] 99.85

Quick one: HPLC-purity of Nc1nc(O)c2c(CCc3ccc(C(=O)N[C@@H](CCC(=O)O)C(=O)O)cc3)c[nH]c2n1 [Heptahydrate] ? 99.81

// query HPLC-purity value for entry Nc1nc(O)c2c(CCc3ccc(C(=O)N[C@@H](CCC(=O)O)C(=O)O)cc3)c[nH]c2n1 [2.5 hydrate] 99.84

---

# experimental setup: 5% to 12% relative humidity, dark, air, 5 d; measured 9.5% (Form A 5.3%), 24° C.
recorded endpoint: HPLC-purity (10.5 min) (%)
// note: answer is a bare numeric in %

Requested read-out: HPLC-purity (10.5 min). Entry: Nc1nc(O)c2c(CCc3ccc(C(=O)N[C@@H](CCC(=O)O)C(=O)O)cc3)c[nH]c2n1 [2.5 hydrate] 99.82

What does the record list as HPLC-purity (10.5 min) for Nc1nc(O)c2c(CCc3ccc(C(=O)N[C@@H](CCC(=O)O)C(=O)O)cc3)c[nH]c2n1 [Heptahydrate] ? 99.73

Fill blank: measured HPLC-purity (10.5 min) of the molecule Nc1nc(O)c2c(CCc3ccc(C(=O)N[C@@H](CCC(=O)O)C(=O)O)cc3)c[nH]c2n1 [Form A] is ____. 99.33

Look at this molecule and give its reported HPLC-purity (10.5 min). Nc1nc(O)c2c(CCc3ccc(C(=O)N[C@@H](CCC(=O)O)C(=O)O)cc3)c[nH]c2n1 [Form IV] 99.60
